method description: inhibitors of E-selectin induction by TNFa, primary screen, imaging, HUVEC, immunofluorescence, MLSMR starter and 10KST1 sets (AID 487);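 also: 100% = median nuclei count of all wells on the same plate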
condition notes: HUVEC TNFalpha-induced E-selectin immunofluorescence imaging, at 2 µM; measured here: cell number, toxicity
quantity name: nuclei count (%)
Reply numerically in %, unit not repeated.

Consider the following illustrative entries.
{"compound": "N#Cc1nc(COc2ccc(Br)cc2)oc1N1CCCC1", "nuclei count / %": 132}
{"compound": "CN(C)C/C(Cl)=C(\\Cl)c1ccccc1", "nuclei count / %": 159}
{"compound": "O=C(c1ccc(F)cc1)N1CCC(N2CCCCCC2)CC1", "nuclei count / %": 138}
{"compound": "CSc1nnc(N(CCC#N)CCC#N)s1", "nuclei count / %": 91}
{"compound": "CC1=CC(c2ccccc2)n2nc(N3C(=O)C4CC=CCC4C3=O)nc2N1 (centres undefined)", "nuclei count / %": 153}
{"compound": "CCc1ccc(NC(=O)CSC2=C(C#N)C(c3ccco3)C3=C(CCCC3=O)N2)cc1 (centres undefined)", "nuclei count / %": 117}

(Q) Provide measured nuclei count value, entry: `O=C(O)Cc1cc(I)c(Oc2ccc(O)c(I)c2)c(I)c1`
(A) 123

(Q) Using the record for `COc1ccc(CCNC(=O)c2ccc(=O)[nH]n2)cc1OC` , state its measured nuclei count.
(A) 113

(Q) Query nuclei count for `Cc1cc(C)n(Cc2ccc(C(=O)NCCC3=CCCCC3)o2)n1`
(A) 119

###

method description: inhibitors of Sendai virus-induced IRF3 signaling, primary screen, TLR/RLR signaling modifier project, cell-based, Sendai virus stimulus, luciferase, 10K MLSCN set (AID 602276);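 also: firefly luciferase from ISG56 promoter only with Renilla not read in this screen; 0% = Sendai virus plus DMSO and 100% = medium plus DMSO without virus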
condition notes: HEK293 RL24 IRF3 luciferase reporter, at 10 µM, stronger effect = higher value
Each entry below lists one item and its recorded inhibition value.
Form entry: value (%) — number only.

(Q) Please look at this compound and report its inhibition: `CC(=O)[C@H]1CC[C@H]2[C@@H]3CCC4=CC(=O)CC[C@]4(C)[C@H]3[C@H](O)C[C@]12C`
(A) -13.1

(Q) Look up and report measured inhibition for this entry: `CCc1cc(=O)oc2c(CN3CCN(C)CC3)c(O)c(Cl)cc12`
(A) 16.8

(Q) Note down inhibition recorded for `CCOC(=O)CNC(=O)Nc1ccccc1C(=O)OC`
(A) 10.2

(Q) Tell us which inhibition value is on record for `CN1CCN(C2=Nc3ccccc3Oc3ccc(Cl)cc32)CC1`
(A) 13.8

(Q) Identify measured inhibition corresponding to CCCN(CCC)C(=O)C(CCC(=O)O)NC(=O)c1ccccc1 (configuration not stated)
(A) 11.3

(Q) Give the reported inhibition for this compound. `C/C(=N\O)C(=O)NCCCNCCCN(C)C`
(A) 15.3

(Q) Supply reported inhibition belonging to this compound: `CCN1CCN(c2nc3c(C)cccn3c(=O)c2/C=C(\C#N)S(=O)(=O)c2ccccc2)CC1`
(A) 9.29

(Q) Recall and state the measured inhibition for `CCCCCC(=O)N1CC2(CC)CN(C(=O)CCCCC)CC(CC)(C1)C2=O` .
(A) 3.77

(Q) Please list inhibition recorded for the compound `CCOC(=O)c1[nH]c2ccccc2c1NC(=O)CCN1CCN(C(=O)OCC)CC1`
(A) 14.7

(Q) Provide one value: measured inhibition of `NC(N)=NS(=O)(=O)c1ccc(N)cc1`
(A) 18.4

(Q) Specify inhibition for CCN(CC)CC#CCOC(=O)C(O)(c1ccccc1)C1CCCCC1 (configuration not stated) and stop.
(A) 9.64

(Q) Return inhibition (reported value) for this compound: CN1CC=C2C(C#N)=C(N)C(C#N)(C#N)[C@H](c3cccc(Cl)c3)C2C1 (some centres not stated)
(A) 13.6

(Q) Using known records, supply inhibition for N#CC1=C(N)N(c2ccccc2)C(c2ccccc2)C1(C#N)C#N (configuration not stated)
(A) 16.9

(Q) Respond only with inhibition recorded for CCOc1cc(C2Nc3ccccc3C(=O)N2c2ccccc2OC)ccc1O (configuration not stated)
(A) -2.55

(Q) Item COc1ccc2c(c1)C1(C)CC(C)(C)N2C(=O)N1c1ccccc1 (configuration not stated) : provide inhibition
(A) 12

(Q) Determine from records and report inhibition for `CCCCc1nc(NCCN2CCOCC2)c(C#N)c2c1COC(C)(C)C2`
(A) 15.9

(Q) Give inhibition for CCOC(=O)c1ccc(N2C(=O)CC(Sc3nnc(C)s3)C2=O)cc1 (configuration not stated)
(A) 1.68

###

method description: DUSP6 inhibitors restoring Erk phosphorylation by chemical complementation, primary imaging in DUSP6-transfected HeLa (AID 609)
condition notes: HeLa MKP-3 transfected, phospho-Erk imaging KS statistic; measured here: cell density z-score; at 10 µM; cells stimulated with TPA for 15 min
quantity name: z-score
Response field accepts a number only; no unit should be typed.

{"molecule": "O=C(C1CC1(c1ccccc1)c1ccccc1)N1CCOCC1 (stereo unspecified)", "z-score": 0.0865}

// switching to the query molecule
(Q) Look up and state reported z-score for `N#Cc1nc(-c2ccccc2Cl)oc1N1CCCCC1`
(A) 1.98

###

method description: inhibitors of TNFa-induced NFkB p65 translocation, primary screen, imaging, HUVEC, MLSMR starter and 10KST1 sets (AID 438);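 also: compound added about 3h40 before a 20 min TNFalpha stimulation; signal is the nuclear over cytoplasmic p65 intensity ratio per well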
condition notes: HUVEC TNFa-induced p65 nuclear translocation; at 2 µM, stronger effect = higher value, 0% TNFa-plus-vehicle, 100% no-TNFa wells
quantity name: inhibition (%)
Form entry: value (%) — number only.

Example entries and their recorded answers appear below.
{"compound": "Cc1nnc2n(-c3ccccc3)c(=O)c3c4c(sc3n12)CC(C)CC4 (stereo not given)", "unit label": "%", "inhibition": -1.3}
{"compound": "CC(=O)NC1(C(F)(F)F)C(=O)Nc2c1c(=O)n(C)c(=O)n2C (stereo not given)", "unit label": "%", "inhibition": -4.5}
{"compound": "O=C(O)CC(NCc1ccco1)C(=O)OCCc1ccccc1 (stereo not given)", "unit label": "%", "inhibition": -1.9}
{"compound": "c1cncc(-c2nnc3sc(C4CCCCC4)nn23)c1", "unit label": "%", "inhibition": -5.5}
{"compound": "CC(=O)Nc1cccc(NC(=O)CSc2nc(C)c(C)c(C)c2C#N)c1", "unit label": "%", "inhibition": -8.2}
{"compound": "N#CC1(c2ccccc2)CCC(=NO)CC1 (stereo not given)", "unit label": "%", "inhibition": -0.6}
{"compound": "Nn1c(SCC(=O)Nc2ccc3c(c2)OCCO3)nnc1C(F)(F)F", "unit label": "%", "inhibition": 0}
{"compound": "CCCCOc1nc2ccccc2nc1C(C#N)C(=O)NC1CCCCC1 (stereo not given)", "unit label": "%", "inhibition": -10.2}
{"compound": "N/C(CCN1CCCCC1)=N/O", "unit label": "%", "inhibition": -29.9}

(Q) Assign inhibition to the following record: `Nc1nonc1C(=O)NCCN=Cc1cc(Cc2ccccc2)cc(Br)c1O`
(A) -4.9

###

method description: DUSP6 inhibitors restoring Erk phosphorylation by chemical complementation, primary imaging in DUSP6-transfected HeLa (AID 609)
condition notes: HeLa MKP-3 transfected, phospho-Erk imaging KS statistic; measured here: cell density z-score; at 10 µM; cells stimulated with TPA for 15 min
quantity name: z-score
// keep it numeric: no unit symbol after the value

(Q) Read the entry `C=CCc1c(C)nc(SCCC)[nH]c1=O` and write its reported z-score.
(A) 0.611

(Q) Retrieve z-score measured for `Cn1c(=O)c2c(nc(OCc3cccnc3)n2Cc2ccccc2)n(C)c1=O` and print it.
(A) 1.08

(Q) Annotate the molecule `CN(C)CCN(Cc1ccccc1)c1ccccn1` with its measured z-score.
(A) -0.393

(Q) # return recorded z-score for input `CCN(CC)CCNC(=O)c1ccccc1N`
(A) 0.845

(Q) Given `COCCNc1nc2c(c(=O)n(Cc3ccc(OC)cc3)c(=O)n2C)n1C` , respond with its z-score.
(A) 0.697

(Q) Name the recorded z-score of the molecule listed here: `CC1(C)Cc2c(sc3nc4n(c(=N)c23)CCC4)CO1`
(A) -0.552

(Q) Note down z-score recorded for `COc1nc(N(C)S(=O)(=O)c2ccc(C)cc2)nc(C)c1Cl`
(A) -0.267

(Q) Please give measured z-score of the following entry: `Cc1nnc(C)n1/N=C/c1cccn1C`
(A) -0.977

(Q) Given `Cc1csc(NC(=O)CSc2nsc(SCC(=O)Nc3nc(C)cs3)c2C#N)n1` , respond with its z-score.
(A) -1.33

(Q) Note z-score for the molecule shown: `c1coc(-c2nnc3sc(-c4cccs4)nn23)c1`
(A) -1.75

###

method description: DUSP6 inhibitors restoring Erk phosphorylation by chemical complementation, primary imaging in DUSP6-transfected HeLa (AID 609)
condition notes: HeLa MKP-3 transfected, phospho-Erk imaging KS statistic; measured here: nuclear pErk red intensity z-score; at 10 µM; stronger effect = higher value; cells stimulated with TPA for 15 min
quantity name: z-score
Answer with the value's number alone.

In the examples that follow, each entry is paired with its recorded z-score.
{"molecule": "COc1ccc(NCc2cc3ccccc3[nH]c2=O)cc1", "z-score": 0.127}
{"molecule": "Cc1onc(-c2ccccc2)c1C(=O)N[C@@H]1C(=O)N2[C@@H]1SC(C)(C)[C@@H]2C(=O)O", "z-score": 0.656}

(Q) Look up and state reported z-score for OCC(O)CN1CCN(c2ccccc2)CC1 (stereo not drawn)
(A) -0.225
